Hello, the source for this data is paper PMC10786891, in case you need it.

Target: T1, EsCas13d, nuclease-dead (Eubacterium siraeum, UniProt B0MS50, R295A;H300A;R849A;H854A)
T1 sequence: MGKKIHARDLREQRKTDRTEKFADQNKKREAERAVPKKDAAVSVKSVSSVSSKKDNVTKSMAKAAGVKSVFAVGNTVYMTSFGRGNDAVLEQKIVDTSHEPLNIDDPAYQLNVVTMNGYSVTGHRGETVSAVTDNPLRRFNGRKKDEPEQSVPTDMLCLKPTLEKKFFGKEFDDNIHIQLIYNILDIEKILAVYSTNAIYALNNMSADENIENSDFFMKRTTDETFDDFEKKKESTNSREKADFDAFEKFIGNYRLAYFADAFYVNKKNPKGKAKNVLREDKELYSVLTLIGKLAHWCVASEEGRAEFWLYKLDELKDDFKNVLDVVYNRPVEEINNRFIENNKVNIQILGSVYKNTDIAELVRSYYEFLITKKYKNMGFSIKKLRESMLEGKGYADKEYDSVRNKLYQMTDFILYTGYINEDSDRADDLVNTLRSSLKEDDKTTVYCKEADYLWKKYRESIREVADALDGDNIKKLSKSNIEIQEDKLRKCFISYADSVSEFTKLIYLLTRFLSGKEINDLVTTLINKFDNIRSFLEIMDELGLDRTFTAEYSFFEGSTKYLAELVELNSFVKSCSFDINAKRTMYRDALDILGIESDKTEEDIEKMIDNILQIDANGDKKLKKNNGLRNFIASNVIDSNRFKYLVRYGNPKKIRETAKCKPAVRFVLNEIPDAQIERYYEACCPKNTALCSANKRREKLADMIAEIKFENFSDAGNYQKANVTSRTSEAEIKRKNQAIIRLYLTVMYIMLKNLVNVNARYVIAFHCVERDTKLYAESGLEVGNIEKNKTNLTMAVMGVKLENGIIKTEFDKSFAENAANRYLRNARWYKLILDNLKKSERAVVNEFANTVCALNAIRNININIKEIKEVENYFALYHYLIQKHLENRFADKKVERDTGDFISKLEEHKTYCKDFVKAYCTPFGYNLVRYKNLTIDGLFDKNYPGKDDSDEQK
Experiment: crRNA (strand 1, pre-loaded); Mg2+; 40 mM Tris-HCl pH 7.5, 150 mM NaCl, 6 mM MgCl2, 1 mM DTT, 0.1% Tween-20, 0.2 mg/ml BSA; 25 C; 10 min per concentration, then washed
Settings: tags: His6-TwinStrep-SUMO cleaved; N-terminal SNAP kept (SNAP-Surface 488); label: 3' end held by stalled T7 RNA polymerase
pKd: −log10 of the molar value.

binder | pKd
target 3 del1,del14 (mixed) RNA 1: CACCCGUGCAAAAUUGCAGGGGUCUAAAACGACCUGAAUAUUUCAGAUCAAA RNA 2: GGGAAUGGAUCCACAUCUACGAAUUCGUUUUUGAUCUAAAUAUUCAGGUUGCAGAUCGGAAGAGCACACGU | 6.96
target 2 MT 5'PFS CGG 3'PFS CUU (mixed) RNA 1: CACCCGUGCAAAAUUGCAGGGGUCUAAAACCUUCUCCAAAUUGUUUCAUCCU RNA 2: GGGAAUGGAUCCACAUCUACGAAUUCCGGAGGAUGAAACAAUUUGGAGAAGCUUAGAUCGGAAGAGCACACGU | 8.18
